- Test system: Streptococcus pneumoniae
- test-description: Antibacterial activity against quinolone-resistant Streptococcus pneumoniae […] by agar dilution method
- Assay type: functional
result-type: MIC50 (µg/mL)
Supply the numeric figure in µg/mL, leaving out any unit text.

# count of solved cases: 2
CO/N=C1\CN(c2nc3c(cc2F)c(=O)c(C(=O)O)cn3C2CC2)CC1CN (stereo not drawn): 0.25
CC[C@H]1OC(=O)[C@H](C)[C@@H](O[C@H]2C[C@@](C)(OC)[C@@H](O)[C@H](C)O2)[C@H](C)[C@@H](O[C@@H]2O[C@H](C)C[C@H](N(C)C)[C@H]2O)[C@](C)(O)C[C@@H](C)CN(C)[C@H](C)[C@@H](O)[C@]1(C)O: 0.06

Okay, now this molecule:
// MIC50 (Streptococcus pneumoniae) for COc1c(N2CC3(CC3)[C@](C)(N)C2)c(F)cc2c(=O)c(C(=O)O)cn([C@@H]3C[C@@H]3F)c12.O = 1

###

- Tested on: Streptococcus pneumoniae
- test-description: Antibacterial activity against penicillin-susceptible Streptococcus pneumoniae ATCC 49619 by agar dilution method
- Assay type: functional
result-type: MIC50
Provide a numeric answer, followed by its unit.

# count of solved cases: 4
CC[C@H]1OC(=O)[C@H](C)C(=O)[C@H](C)[C@@H](O[C@@H]2O[C@H](C)C[C@H](N(C)C)[C@H]2O)[C@](C)(OC)C[C@@H](C)C(=O)[C@H](C)[C@H]2N(CCCCn3cnc(-c4cccnc4)c3)C(=O)O[C@]12C: 0.03 mg/L
CC1(C)S[C@@H]2[C@H](NC(=O)Cc3ccccc3)C(=O)N2[C@H]1C(=O)O: 0.03 mg/L
CC[C@H]1OC(=O)[C@H](C)[C@@H](O[C@H]2C[C@@](C)(OC)[C@@H](O)[C@H](C)O2)[C@H](C)[C@@H](O[C@@H]2O[C@H](C)C[C@H](N(C)C)[C@H]2O)[C@](C)(O)C[C@@H](C)CN(C)[C@H](C)[C@@H](O)[C@]1(C)O: 0.12 mg/L
COc1c(N2CC3(CC3)[C@](C)(N)C2)c(F)cc2c(=O)c(C(=O)O)cn([C@@H]3C[C@@H]3F)c12.O: 0.12 mg/L

// MIC50 (Streptococcus pneumoniae) for COc1c(N2CCNC(C)C2)c(F)cc2c(=O)c(C(=O)O)cn(C3CC3)c12 (configuration not stated) = 0.5 mg/L

// MIC50 (Streptococcus pneumoniae) for CO/N=C1\CN(c2nc3c(cc2F)c(=O)c(C(=O)O)cn3C2CC2)CC1CN (configuration not stated) = 0.03 mg/L

// MIC50 (Streptococcus pneumoniae) for C[C@H]1COc2c(N3CCN(C)CC3)c(F)cc3c(=O)c(C(=O)O)cn1c23.C[C@H]1COc2c(N3CCN(C)CC3)c(F)cc3c(=O)c(C(=O)O)cn1c23.O = 1 mg/L

###

Readings of MIC for the listed compounds
- System: Streptococcus pneumoniae
- test-description: Antibacterial activity against Streptococcus pneumoniae HMC 1071 harboring S81F mutation in quinolone-resistant determining regions of GyrA gene and S79F, K137N mutation in QRDR of ParC gene by agar dilution method
- Format: functional
Provide a numeric answer, followed by its unit.

O=C(O)c1cn(C2CC2)c2cc(N3CCNCC3)c(F)cc2c1=O: 32 µg/mL
COc1c(N2C[C@@H]3CCCN[C@@H]3C2)c(F)cc2c(=O)c(C(=O)O)cn(C3CC3)c12: 4 µg/mL
COc1c(N2CCNC(C)C2)c(F)cc2c(=O)c(C(=O)O)cn(C3CC3)c12 (stereo not given): 8 µg/mL
CO/N=C1\CN(c2nc3c(cc2F)c(=O)c(C(=O)O)cn3C2CC2)CC1CN (stereo not given): 0.5 µg/mL

Given item COc1c(N2CC3(CC3)[C@](C)(N)C2)c(F)cc2c(=O)c(C(=O)O)cn([C@@H]3C[C@@H]3F)c12.O , the value recorded as its MIC is 1 µg/mL
